assay: MRT (0 to infinity) in Sprague-Dawley rat at 35 mg/kg, ip measured upto 24 hrs by LC-MS/MS analysis; format: ADME, organism-based; settings: in vivo
VALUE_TYPE: MRT inf
Reply with the number and its unit after it.

Recorded result, COc1cc(-c2cc(-c3ccccc3)nc3c2CC(=O)Nc2ccccc2-3)ccc1OCCOCCOCCC(=O)N[C@H](C(=O)N1C[C@H](O)C[C@H]1C(=O)N[C@@H](C)c1ccc(-c2scnc2C)cc1)C(C)(C)C , MRT inf: 19.9 h

* * *

assay: AUC (0 to infinity) in Sprague-Dawley rat at 35 mg/kg, ip measured upto 24 hrs by LC-MS/MS analysis; format: ADME, organism-based; details: in vivo
VALUE_TYPE: AUC(0-inf) (ng·h/mL)
Express it in ng·h/mL; write the number only.

Recorded result, COc1cc(-c2cc(-c3ccccc3)nc3c2CC(=O)Nc2ccccc2-3)ccc1OCCOCCOCCC(=O)N[C@H](C(=O)N1C[C@H](O)C[C@H]1C(=O)N[C@@H](C)c1ccc(-c2scnc2C)cc1)C(C)(C)C , AUC(0-inf): 2690

* * *

assay: Half life in Sprague-Dawley rat at 35 mg/kg, ip measured upto 24 hrs by LC-MS/MS analysis; assay type: ADME, organism-based; settings: in vivo
VALUE_TYPE: half-life (min)
Express it in min; write the number only.

Recorded result, COc1cc(-c2cc(-c3ccccc3)nc3c2CC(=O)Nc2ccccc2-3)ccc1OCCOCCOCCC(=O)N[C@H](C(=O)N1C[C@H](O)C[C@H]1C(=O)N[C@@H](C)c1ccc(-c2scnc2C)cc1)C(C)(C)C , half-life: 798

* * *

test: Cmax in Sprague-Dawley rat at 35 mg/kg, ip measured upto 24 hrs by LC-MS/MS analysis; assay type: ADME, organism-based; conditions: in vivo
VALUE_TYPE: Cmax (ng/mL)
Express it in ng/mL; write the number only.

Recorded result, COc1cc(-c2cc(-c3ccccc3)nc3c2CC(=O)Nc2ccccc2-3)ccc1OCCOCCOCCC(=O)N[C@H](C(=O)N1C[C@H](O)C[C@H]1C(=O)N[C@@H](C)c1ccc(-c2scnc2C)cc1)C(C)(C)C , Cmax: 193

* * *

tested on: NCI-H226; test: Antiproliferative activity against human NCI-H226 cells assessed as cell killing upto 3.13 uM incubated for 4 days by CCK-8 assay; type: functional, cell-based; details: time 4.0 day
Calls of active or inactive are those of the source. The rule behind the calls is not given here.
VALUE_TYPE: Activity

COMPOUND	VAL
COc1ccc(-c2cc(-c3ccc(OCC(=O)NCCOCCOCCOCCNc4cccc5c4C(=O)N(C4CCC(=O)NC4=O)C5=O)cc3)nc3c2CC(=O)Nc2ccccc2-3)cc1OC (stereo not drawn)	inactive
COc1ccc(-c2cc(-c3ccc(OCCOCCOCCC(=O)N[C@H](C(=O)N4C[C@H](O)C[C@H]4C(=O)N[C@@H](C)c4ccc(-c5scnc5C)cc4)C(C)(C)C)cc3)nc3c2CC(=O)Nc2ccccc2-3)cc1OC	inactive
COc1ccc(-c2cc(-c3ccc(OCCCCCCCCCC(=O)N[C@H](C(=O)N4C[C@H](O)C[C@H]4C(=O)N[C@@H](C)c4ccc(-c5scnc5C)cc4)C(C)(C)C)cc3)nc3c2CC(=O)Nc2ccccc2-3)cc1OC	inactive

* * *

tested on: NCI-H226; assay: Antiproliferative activity against NF2 deficient- human NCI-H226 cells assessed as cell growth inhibition incubated for 4 days by CCK-8 assay; assay type: functional, cell-based; details: NCI-H226, 96 h
VALUE_TYPE: IC50 (µM)
Express it in µM; write the number only.

Recorded result, COc1ccc(-c2cc(-c3ccccc3)nc3c2CC(=O)Nc2ccccc2-3)cc1OC , IC50: 3.9

Recorded result, COc1cc(-c2cc(-c3ccccc3)nc3c2CC(=O)Nc2ccccc2-3)ccc1OCCOCCOCCC(=O)N[C@H](C(=O)N1C[C@H](O)C[C@H]1C(=O)N[C@@H](C)c1ccc(-c2scnc2C)cc1)C(C)(C)C , IC50: 15.3

* * *

molecular target: Transcriptional enhancer factor TEF-1 (Homo sapiens) (UniProt P28347); test: Inhibition of TEAD transcriptional activity in human HEK293T cells incubated for 24 hrs by luciferase reporter assay; assay type: cell-based
Sequence (P28347 whole entry): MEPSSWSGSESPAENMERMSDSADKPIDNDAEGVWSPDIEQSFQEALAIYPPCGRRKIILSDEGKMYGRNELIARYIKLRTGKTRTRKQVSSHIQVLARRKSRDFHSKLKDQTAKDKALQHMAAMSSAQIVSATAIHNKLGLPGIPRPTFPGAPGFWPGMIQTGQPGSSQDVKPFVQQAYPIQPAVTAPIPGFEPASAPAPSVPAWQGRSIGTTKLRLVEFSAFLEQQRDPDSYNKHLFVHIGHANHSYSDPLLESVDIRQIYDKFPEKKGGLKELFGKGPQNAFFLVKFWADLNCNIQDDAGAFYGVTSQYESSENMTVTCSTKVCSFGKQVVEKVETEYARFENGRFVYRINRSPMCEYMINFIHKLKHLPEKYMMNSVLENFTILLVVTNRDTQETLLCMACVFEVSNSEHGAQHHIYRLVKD
The source made the active and inactive calls. The calls are words filed in the database; no cut-off is given here.
VALUE_TYPE: TEAD transcriptional inhibition (active/inactive call)

COc1ccc(-c2cc(-c3ccccc3)nc3c2CC(=O)Nc2ccccc2-3)cc1O Active
CC(=O)c1ccc(OCc2ccccc2)cc1 Active
COc1cc(-c2cc(-c3ccccc3)nc3c2CC(=O)Nc2ccccc2-3)ccc1O Active
COc1cc(-c2cc(-c3ccccc3)nc3c2CC(=O)Nc2ccccc2-3)ccc1OCCOC(C)=O Active

Per the reported Transcriptional enhancer factor TEF-1 (Homo sapiens) (UniProt P28347) data, COc1ccc(-c2cc(-c3ccccc3)nc3c2CC(=O)Nc2ccccc2-3)cc1OCc1ccccc1 has TEAD transcriptional inhibition (active/inactive call) of Active

Per the reported Transcriptional enhancer factor TEF-1 (Homo sapiens) (UniProt P28347) data, COc1ccc(-c2cc(-c3ccccc3)nc3c2CC(=O)Nc2ccccc2-3)cc1OCCOC(C)=O has TEAD transcriptional inhibition (active/inactive call) of Active
